# Study system: human TGFßRII (antigen of the Octet experiments) (human, UniProt P37173 23-166)
# Sequence (P37173 23-166): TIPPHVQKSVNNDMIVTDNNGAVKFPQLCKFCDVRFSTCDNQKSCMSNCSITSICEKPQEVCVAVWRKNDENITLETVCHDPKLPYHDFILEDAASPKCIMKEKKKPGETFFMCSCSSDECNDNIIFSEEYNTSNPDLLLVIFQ
# Protocol description: BLI (Octet)
Please provide measured pKd for the entries that follow.
Numbers only, as −log10 of the molar value.

I would be grateful if you could provide pKd for each of the following entries.
1. H1 L1.38 XENP34601 (antibody, V domains shown) VH: QLQVQESGPGLVKPSETLSLTCTVSGGSISNSYFSWGWIRQPPGKGLEWIGSFYYGEKTYYNPSLKSRATISIDTSKSQFSLKLSSVTAADTAVYYCPRGPTMIRGVIDSWGQGTLVTVSS VL: EIVLTQSPATLSLSPGERATLSCRASQSVRSYLAWYQQKPGQAPRLLIYDASNRATGIPARFSGSGSGTDFTLTISSLEPEDFAVYYCQQSSNWPPTFGQGTKVEIK
2. H1 L1.35 XENP34598 (antibody, V domains shown) VH: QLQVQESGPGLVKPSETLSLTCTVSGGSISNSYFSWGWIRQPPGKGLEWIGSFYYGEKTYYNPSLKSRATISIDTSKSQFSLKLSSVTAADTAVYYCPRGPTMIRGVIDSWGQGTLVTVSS VL: EIVLTQSPATLSLSPGERATLSCRASQSVRSYLAWYQQKPGQAPRLLIYDASNRATGIPARFSGSGSGTDFTLTISSLEPEDFATYYCQQRSNWPPTFGQGTKVEIK

Ans.
7.61
9.46
